Listed here are compounds together with their documented Log10 reduction of P. aeruginosa.
Tested on: P. aeruginosa
Assay: Direct contact test on glass plates, Log10 reduction of P. aeruginosa
Assay type: cell-based
Details: modified anti-microbial agents 1% w/w in hydrogel formulation according to Example 22
Write it as a number; the unit Log10 goes unstated.

C=C(C)C(=O)OCC[N+](C)(C)CCOCCOc1ccc(C(C)(C)CC(C)(C)C)cc1.[Cl-] :: 1

Record summary for "C=C(C)C(=O)OCCOCC[n+]1ccc(CCCCCCCCCCCCC)cc1.[Cl-]" : reported Log10 reduction of P. aeruginosa = 1
